Listing: self-cleavage of selected variants
B1: Hairpin Ribozyme (parent)
chain: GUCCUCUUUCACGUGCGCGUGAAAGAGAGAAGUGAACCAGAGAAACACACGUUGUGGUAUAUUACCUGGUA

variants of: B1; assay: self-cleavage, relative activity (ratio to wild type); higher = more cleavage; co-transcriptional

SEQUENCE CONTENT	self-cleavage
GUCCUCUUUCACGUGCGCGUGAAAGAGAGAAGUGAACCAUAGAAACAAACGUUGUGGUAUAUUACCUGGUA [G40U C48A]	0.0709
GUCCUCUUUCAGGUGCGCGUGAAAGAGAGAAGUGAACCAGAGAAACAUACGUUGUGGUAUAUUACCUGGUA [C12G C48U]	0.193
GUCCUCUUUCACGUGCGCGUGAAAGAGGGAAGUGAACCAGAGAAACACACGUUGUGGUAUAUUACAUGGUA [A28G C66A]	0.231
GUCCUCUUUCAAGUACGCGUGAAAGAGAGAAGUGAACCAGAGAAACACACGUUGUGGUAUAUUACCUGGUA [C12A G15A]	0.801
GUCCUAUUUCACGUGCGCGUGAAAGAGAGUAGUGAACCAGAGAAACACACGUUGUGGUAUAUUACCUGGUA [C6A A30U]	0.0998
GUCCUCUUUCACGUGCGCGUGUAAGAGAGAAGUGAACCAGUGAAACACACGUUGUGGUAUAUUACCUGGUA [A22U A41U]	1.14
GUCAUCUUUCACGUGCGCGUGAAAGAGAGAAGUGAACCAGAGAAACACACGUUGUGGUAUAUUACCUGGUC [C4A A71C]	0.674
GUCCUAUUUCACGUGCGCGUGAAAUAGAGAAGUGAACCAGAGAAACACACGUUGUGGUAUAUUACCUGGUA [C6A G25U]	0.763
GUCCUCUUUCACGUGCGCGUGAAAGAGAGAAGUGAACCAGAUAAACACCCGUUGUGGUAUAUUACCUGGUA [G42U A49C]	0.173
GUGCUCUUUCACGUGCGCGUGAAAGAGAGAAGUGAACCAGAGAAACACACUUUGUGGUAUAUUACCUGGUA [C3G G51U]	0.342
GUCUUCUUUCACGUGCGCGUGAAAGAGAGAAGUGAACCAGAGAAAUACACGUUGUGGUAUAUUACCUGGUA [C4U C46U]	0.152
GUCCUCUUUCGCGUGCGCGUGAAAGAGAGAAGUGAACCAGAGAAACACUCGUUGUGGUAUAUUACCUGGUA [A11G A49U]	0.208
GUCCUCUUUCACGUGCGCGUGAAAGAGAGAAUUGAACCAGAGAAACACACGUUGUGGGAUAUUACCUGGUA [G32U U58G]	0.137
GUACUCUUUCACGUGCGCGUGAAAGAGAGAAGUGAUCCAGAGAAACACACGUUGUGGUAUAUUACCUGGUA [C3A A36U]	0.319
GUCCUCUUUCUCGUGCGCGUGAAAGAGAGUAGUGAACCAGAGAAACACACGUUGUGGUAUAUUACCUGGUA [A11U A30U]	0.133
GUCCUCUUUCACGUGCGCGUGAAAGAGAGAAGUGAACCAGAGAAACACACGUUGUGGUAUAUUAUCCGGUA [C65U U67C]	0.209
GUCCUCUUUCACGGGCGCAUGAAAGAGAGAAGUGAACCAGAGAAACACACGUUGUGGUAUAUUACCUGGUA [U14G G19A]	0.651
GUCCUCUUUCACGUGCGCGUGAAAGAGAGACGUGAACCAGAGAUACACACGUUGUGGUAUAUUACCUGGUA [A31C A44U]	0.109
GUCCUCUUUGACGUGCGCGUGGAAGAGAGAAGUGAACCAGAGAAACACACGUUGUGGUAUAUUACCUGGUA [C10G A22G]	0.649
GUCGUCUUUCACGUGCGCGUGAAAGAGAGAAGUGAACCAGAGAAACCCACGUUGUGGUAUAUUACCUGGUA [C4G A47C]	0.13
GUCCUUUUUCACGUGCGCGUGAAAGAGAGAAGUGAACCAGAGAAACACACAUUGUGGUAUAUUACCUGGUA [C6U G51A]	0.816
GUCCUCUUUCACGUGCGCGUGAAAGACAGAAGUGAACCAGAGAAACACACGUUGUAGUAUAUUACCUGGUA [G27C G56A]	0.0609
GUCCUCUUUCACGUGCGCGUAAAAGAGAGAAGUGAACCAGAGAAACACACGUUGUGGUAUAUCACCUGGUA [G21A U63C]	0.155
GUCCUCUUUCACGUGCGCGUGAAAGAGAGAAGUGAACCAGAGAAACACAGGUUGCGGUAUAUUACCUGGUA [C50G U55C]	0.16
CUCCUCUUUCACGUGCGCGUGAAAGAGAGAAGUGAACCAGAGAAACACACGUUGUGGUAUAUUACCUGGUC [G1C A71C]	0.328
GUCCUCUUUCACGUGCGCGUGAAAGAGAGAAGCGAACCAGAGAAACACACGUUAUGGUAUAUUACCUGGUA [U33C G54A]	0.0427
GUCCUCUUUCACGUGCGCGUGAAAGAGAGAAGUGAACCAGAGAAUCACACGUUGUGCUAUAUUACCUGGUA [A45U G57C]	0.15
GUCCUCUUUCACGUGCUCUUGAAAGAGAGAAGUGAACCAGAGAAACACACGUUGUGGUAUAUUACCUGGUA [G17U G19U]	0.581
GUCCUCUUUCACGUGCGCGUGAAAUAGAGAAGUGAACCAGAGAAACACACGUUUUGGUAUAUUACCUGGUA [G25U G54U]	0.399
GUCCUCUUUCACGUGCGCGUGAAAGAGAGACGUGAACCAGAGAAACACACGUUGUGGUAUAUUACAUGGUA [A31C C66A]	0.146
GUCCUCUUUCACGUGCCCGUGAAAGAGAGAAGUGAACCAGAGAAACACACGUUGUGGUAUCUUACCUGGUA [G17C A61C]	0.078
GUCCUCUUUCACGUGCGCGUGAAAGAGAGAAGUGGACCAGAGAAACGCACGUUGUGGUAUAUUACCUGGUA [A35G A47G]	0.142
GUCCUCUUUCACGUGCGCGGGAAAGAGAGAAGUGAACCAGAGAAACACACGUUGAGGUAUAUUACCUGGUA [U20G U55A]	0.147
GUCCUCUUUCACGUGCGCGUGCAAGAGAGGAGUGAACCAGAGAAACACACGUUGUGGUAUAUUACCUGGUA [A22C A30G]	0.179
GUCCUCUUUCACGUGCGCGUGACAGAGAGAUGUGAACCAGAGAAACACACGUUGUGGUAUAUUACCUGGUA [A23C A31U]	0.179
GUCCUCUUUCAAGUGCGCGUGAAAGAGAGAAGUGAACCAGAGAAACACACGAUGUGGUAUAUUACCUGGUA [C12A U52A]	0.763
GUCCUCUGUCACGUGCGCGUGAAAGAGAGAAGUGAACCAGAGACACACACGUUGUGGUAUAUUACCUGGUA [U8G A44C]	0.139
GUCCUCUUUCACGUGCGCGUGUAAGAGAGAAGUGAACCAGAGAAACACAUGUUGUGGUAUAUUACCUGGUA [A22U C50U]	0.342
UUCCCCUUUCACGUGCGCGUGAAAGAGAGAAGUGAACCAGAGAAACACACGUUGUGGUAUAUUACCUGGUA [G1U U5C]	0
GUCCUCUUUCACGUGUGCGAGAAAGAGAGAAGUGAACCAGAGAAACACACGUUGUGGUAUAUUACCUGGUA [C16U U20A]	0.817
GUCCUCUUUCACGAGCGCGUGAAAGAGAGAAGUGAACCAGAGAAACACACGUUGUGGUAUAUUCCCUGGUA [U14A A64C]	0.254
GUCCUCUUUCACGUGCGCGUGAAAGAGAGAAGGGAACCAGAGAGACACACGUUGUGGUAUAUUACCUGGUA [U33G A44G]	0.0996
